- Tested on: Escherichia coli TOP10;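 further: peptides expressed intracellularly from a pBAD plasmid library in pooled LB shake-flask culture, induced with 0.3% L-arabinose, DNA abundance read by NGS, three biological replicates, DESeq2 with apeglm shrinkage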
- test.method.notes: shrunken log2 fold change of peptide-encoding DNA abundance (4.5 h post-induction vs induction); higher = less antimicrobial activity (less host growth inhibition)
- condition.details: time post-induction: 4.5 h; library: site-saturation at positions 5, 18, 19, 20
Give yes (1) when the value for shrunken log2 fold change is at least 0.1. Give no (0) when it is less.

Solved cases below.
- sequence.string: "RRIRIRPPRLPRPRPRPMCWPRP"
  category.label: "no (0)"
- sequence.string: "RRIRFRPPRLPRPRPRPGPSPRP"
  category.label: "yes (1)"
- sequence.string: "RRIRMRPPRLPRPRPRPGSVPRP"
  category.label: "yes (1)"

Turning now to a further sequence:
Item RRIRYRPPRLPRPRPRPEHMPRP with shrunken log2 fold change of 0.1 or above? no (0)
